Exercise: state measured inhibition for each of the molecules provided.
# Tested on: Progesterone receptor (Mesocricetus auratus)
# experimental-protocol: Percent inhibition of [3H]- progesterone binding to Syrian golden hamster uterine cytosol progesterone receptor, at 10e-5 M compound concentration
# recorded-conditions: at 10 µM
Answers are plain numbers, in %.

// known answers, use as guide
{"molecule": "COC(=O)C1=C(C)N=C(C)/C(=C(/O)OC)C1c1ccc(NCc2ccccc2)c([N+](=O)[O-])c1 (centres undefined)", "inhibition (%)": 10}
{"molecule": "COC(=O)C1=C(C)N=C(C)/C(=C(/O)OC)C1c1ccc2nc(-c3ccc(OC)c(OC)c3)n(Cc3ccc(OC)c(OC)c3)c2c1 (centres undefined)", "inhibition (%)": 16}

Provide the reported inhibition of each entry below, same order.
1. COC(=O)Nc1nc2cc(C3C(C(=O)OC)=C(C)N=C(C)/C3=C(/O)OC)ccc2[nH]1 (centres undefined)
2. COC(=O)C1=C(C)N=C(C)/C(=C(/O)OC)C1c1cc2ccccc2n2nnnc12 (centres undefined)

28
10

###

Exercise: state measured inhibition for each of the compounds provided.
# measured-target: Progesterone receptor (Oryctolagus cuniculus) (UniProt P06186)
# Sequence (whole entry): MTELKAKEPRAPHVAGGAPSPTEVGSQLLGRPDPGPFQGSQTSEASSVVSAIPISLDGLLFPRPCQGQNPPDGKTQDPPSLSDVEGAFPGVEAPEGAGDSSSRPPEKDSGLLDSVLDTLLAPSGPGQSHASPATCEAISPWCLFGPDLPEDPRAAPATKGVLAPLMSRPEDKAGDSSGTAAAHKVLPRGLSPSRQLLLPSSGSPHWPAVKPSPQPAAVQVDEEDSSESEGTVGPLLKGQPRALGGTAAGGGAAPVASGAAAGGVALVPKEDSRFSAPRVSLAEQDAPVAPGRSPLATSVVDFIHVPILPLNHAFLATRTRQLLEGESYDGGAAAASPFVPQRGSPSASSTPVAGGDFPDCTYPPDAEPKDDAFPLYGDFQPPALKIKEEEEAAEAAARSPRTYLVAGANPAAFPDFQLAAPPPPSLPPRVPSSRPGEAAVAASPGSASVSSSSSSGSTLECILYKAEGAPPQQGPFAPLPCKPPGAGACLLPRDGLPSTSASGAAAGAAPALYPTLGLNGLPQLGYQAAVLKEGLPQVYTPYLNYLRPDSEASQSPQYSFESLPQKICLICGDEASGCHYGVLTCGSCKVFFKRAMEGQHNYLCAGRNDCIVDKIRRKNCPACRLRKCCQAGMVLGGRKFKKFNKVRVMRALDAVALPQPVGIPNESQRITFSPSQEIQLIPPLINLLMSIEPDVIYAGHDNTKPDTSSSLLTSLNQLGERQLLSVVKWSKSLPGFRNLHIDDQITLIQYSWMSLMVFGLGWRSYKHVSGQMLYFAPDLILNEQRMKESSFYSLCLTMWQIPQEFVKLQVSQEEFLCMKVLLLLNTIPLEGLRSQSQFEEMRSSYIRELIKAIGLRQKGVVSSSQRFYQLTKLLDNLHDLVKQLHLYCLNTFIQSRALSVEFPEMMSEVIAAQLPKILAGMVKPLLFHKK
# experimental-protocol: Percent inhibition of [3H]- progesterone binding to rabbit uterine progesterone receptor, at 10e-9 M compound concentration
# recorded-conditions: at 0.001 µM
Give bare numbers, in %.

{"compound": "COC(=O)Nc1nc2cc(C3C(C(=O)OC)=C(C)N=C(C)/C3=C(/O)OC)ccc2[nH]1 (stereo not drawn)", "measure-name": "inhibition", "measurement": 5}

Provide the reported inhibition of each entry below, same order.
1. COC(=O)C1=C(C)N=C(C)/C(=C(/O)OC)C1c1ccc2nc(-c3ccc(O)c(OC)c3)n(Cc3ccc(O)c(OC)c3)c2c1 (stereo not drawn)
2. COC(=O)C1=C(C)N=C(C)/C(=C(/O)OC)C1c1cc2ccccc2nc1Cl (stereo not drawn)
3. COC(=O)C1=C(C)N=C(C)/C(=C(/O)OC)C1c1ccc2nc(-c3ccc(OC)c(OC)c3)n(Cc3ccc(OC)c(OC)c3)c2c1 (stereo not drawn)
4. COC(=O)C1=C(C)N=C(C)/C(=C(\O)OC)C1c1cc2cc(-c3c(C)oc(C)c3C(=O)OC)ccc2nc1Cl (stereo not drawn)
5. CNc1ccc(C2C(C(=O)OC)=C(C)N=C(C)/C2=C(/O)OC)cc1[N+](=O)[O-] (stereo not drawn)
6. COC(=O)C1=C(C)N=C(C)/C(=C(\O)OC)C1c1ccc(C(=O)OC)cc1 (stereo not drawn)

1. 5
2. 8
3. 0
4. 0
5. 5
6. 0

Test system Progesterone receptor (Oryctolagus cuniculus) (UniProt P06186); read-out inhibition; what value for COC(=O)C1=C(C)N=C(C)/C(=C(/O)OC)C1c1ccc(N)c(N)c1 (stereo not drawn) ?
13

All figures here come from ChEMBL document CHEMBL1124351.
